SYSTEM: SIRT1 (Homo sapiens)
Sequence (Q96EB6 whole entry): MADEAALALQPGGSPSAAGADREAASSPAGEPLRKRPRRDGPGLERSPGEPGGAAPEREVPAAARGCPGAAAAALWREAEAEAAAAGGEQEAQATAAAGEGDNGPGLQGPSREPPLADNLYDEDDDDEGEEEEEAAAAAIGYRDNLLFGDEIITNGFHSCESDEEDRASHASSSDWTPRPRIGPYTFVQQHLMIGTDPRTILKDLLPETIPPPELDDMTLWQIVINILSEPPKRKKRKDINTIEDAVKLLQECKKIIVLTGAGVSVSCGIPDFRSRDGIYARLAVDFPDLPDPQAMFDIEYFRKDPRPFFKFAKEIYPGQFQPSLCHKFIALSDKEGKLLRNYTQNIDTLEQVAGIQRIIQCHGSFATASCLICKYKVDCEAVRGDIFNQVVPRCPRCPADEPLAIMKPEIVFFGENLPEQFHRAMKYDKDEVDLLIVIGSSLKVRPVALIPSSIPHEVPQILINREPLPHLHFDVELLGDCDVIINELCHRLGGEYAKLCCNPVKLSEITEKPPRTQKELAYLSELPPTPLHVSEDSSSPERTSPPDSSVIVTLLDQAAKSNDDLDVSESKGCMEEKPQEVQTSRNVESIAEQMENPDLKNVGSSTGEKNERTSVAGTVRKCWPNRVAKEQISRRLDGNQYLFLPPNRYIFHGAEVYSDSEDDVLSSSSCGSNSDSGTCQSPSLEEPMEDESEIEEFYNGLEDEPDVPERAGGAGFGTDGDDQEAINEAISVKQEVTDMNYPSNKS
TEST DESCRIPTION: Mass spectrometry based assay to identify modulators (activators) of SIRT1 activity
Format: biochemical
CONDITION NOTES: SIRT1 activation; 0.5 μM peptide substrate, 120 μM βNAD+, 10 nM SIRT1, 25 minutes at 25° C.
MEASUREMENT TYPE: EC1.5

>>> df
                            chemical_string          result
0  COCCN1CCN(Cc2cnc3sc(-c4ccccc4NC(=O)c4csc(-c5ccccc5)n4)nc3c2)CC1  A (EC1.5≦1 uM)
1  COCCN1CCN(Cc2sc(-c3ccccc3)nc2C(=O)Nc2ccccc2-c2nc3cccnc3s2)CC1  A (EC1.5≦1 uM)
2  COCCN1CCN(Cc2cnc3sc(-c4ccccc4NC(=O)c4nc(-c5ccccc5)cs4)nc3c2)CC1  A (EC1.5≦1 uM)
